target: DNA dC->dU-editing enzyme APOBEC-3G (Homo sapiens); experiment: APOBEC3G DNA deaminase inhibitors, primary screen, biochemical, fluorescence, single-stranded DNA substrate, uHTS (AID 493012); details: recombinant A3G, ssDNA deamination FAM/TAMRA fluorescence; at 20 µM;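 note: plate controls were DMSO wells with A3G for no effect and wells lacking A3G enzyme for full effect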
About 930 (0.28%) of roughly 330,000 compounds were called active.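 Rule for the calls: active = inhibition of at least 40% at 20 µM, with no more than 30% in the related APOBEC3A deaminase screen; inactive = the rest.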 What follows is part of a selection rich in actives, with near analogues and random picks from the rest.
Could you please pick one outcome from this set? active, inactive

MOLECULE: CCOC(=O)c1cnc(Nc2nc3ccccc3o2)nc1CSC(=S)N1CCCCC1
CLASS NAME: inactive

Okay, now this molecule:
Exam item: Test call for this molecule, please: "O=C(CCn1c(=O)oc2ccccc21)Nc1ccon1"
Marked response: inactive

----------
target: DNA dC->dU-editing enzyme APOBEC-3G (Homo sapiens); test: APOBEC3G DNA deaminase inhibitors, primary screen, biochemical, fluorescence, single-stranded DNA substrate, uHTS (AID 493012); conditions: recombinant A3G, ssDNA deamination FAM/TAMRA fluorescence; at 20 µM
Screen size: about 330,000 compounds; about 930 (0.28%) were called active.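 The calls were made as follows: active = inhibition of at least 40% at 20 µM, with no more than 30% in the related APOBEC3A deaminase screen; inactive = the rest.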 The sample as a whole holds a higher share of actives than the screen did.
The categories you may choose from are True = active, False = inactive

Solved entries:
COMPOUND: COc1ccc(/C=N/NC(=O)C(C)N(c2ccc(OC)cc2)S(C)(=O)=O)cc1 (centres undefined)
CLASS NAME: False

COMPOUND: CC(=O)N1CC[n+]2c(-c3ccc([N+](=O)[O-])cc3)csc21
CLASS NAME: True

COMPOUND: CCN(CC)S(=O)(=O)c1cccc(-c2n[nH]c(=S)n2/N=C/c2ccc(C(=O)OC)cc2)c1
CLASS NAME: False

Exam item: For "COC(=O)c1c(C)[nH]c(C)c1-c1ccc([N+](=O)[O-])cc1" , which call appears in the assay record?
Marked response: False

Exam item: State the result this test recorded for "S=c1[nH]nc(-c2ccco2)n1/N=C/c1ccccc1" .
Marked response: True

Exam item: So what was the verdict on COc1ccc(C2CC(c3ccc([N+](=O)[O-])cc3)=NN2C(C)=O)cc1 (centres undefined) in this test?
Marked response: False

Exam item: Given CCC1Sc2ccc(S(=O)(=O)CCC(=O)NCc3cccs3)cc2NC1=O (centres undefined) , state the outcome it received in this test.
Marked response: False

Exam item: Assay outcome for "S=c1[nH]nc(-c2ccco2)n1/N=C/c1ccc(Br)s1" : what was it?
Marked response: False

Exam item: Which outcome was entered for the compound "COc1ccccc1-n1c(-c2cc(-c3ccco3)[nH]n2)n[nH]c1=S" in this test?
Marked response: True

Exam item: Any idea what this test logged for "Cc1ccc(CN2CCN(/N=C/c3ccco3)CC2)c(C)c1" ?
Marked response: False

Exam item: Please indicate how the test categorized "Cc1ccc(NC(=O)C2CCN(S(=O)(=O)c3ccc4c(c3)NC(=O)CO4)CC2)cc1C" .
Marked response: False

Exam item: Name the outcome recorded for "O=C(NC(=S)Nc1ccc2oc(=O)ccc2c1)c1ccc(-c2cccc(Cl)c2Cl)o1" in the assay.
Marked response: False

Exam item: I'd appreciate the recorded outcome for "CC(C)NC(=O)NNc1c(Cl)cncc1Cl" from this test.
Marked response: False

Exam item: Could you check what this test reported for "S=c1[nH]nc(-c2cc(-c3ccccc3)n[nH]2)n1/N=C/c1c2ccccc2cc2ccccc12" ?
Marked response: True

----------
molecular target: DNA dC->dU-editing enzyme APOBEC-3G (Homo sapiens) (UniProt Q9HC16); test: APOBEC3G DNA deaminase inhibitors, primary screen, biochemical, fluorescence, single-stranded DNA substrate, uHTS (AID 493012); conditions: recombinant A3G, ssDNA deamination FAM/TAMRA fluorescence; at 20 µM;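 note: plate controls were DMSO wells with A3G for no effect and wells lacking A3G enzyme for full effect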
Sequence (Q9HC16 whole entry, looked up): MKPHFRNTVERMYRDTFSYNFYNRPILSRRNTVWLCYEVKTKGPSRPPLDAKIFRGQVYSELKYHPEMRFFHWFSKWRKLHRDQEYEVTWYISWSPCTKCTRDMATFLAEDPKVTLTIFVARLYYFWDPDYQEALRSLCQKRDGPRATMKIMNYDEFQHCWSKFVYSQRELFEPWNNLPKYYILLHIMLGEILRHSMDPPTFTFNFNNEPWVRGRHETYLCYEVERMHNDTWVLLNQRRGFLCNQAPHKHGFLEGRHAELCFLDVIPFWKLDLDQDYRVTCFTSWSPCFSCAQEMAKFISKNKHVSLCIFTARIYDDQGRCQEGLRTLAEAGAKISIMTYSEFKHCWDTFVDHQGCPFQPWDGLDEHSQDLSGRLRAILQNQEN
Hit rate of the full screen: of about 330,000 compounds, about 930 (0.28%) were called active.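 How the source made its calls: active means inhibition of at least 40% at 20 µM, with no more than 30% in the related APOBEC3A deaminase screen; inactive means the rest.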 Only a selection was taken, and actives are over-represented in it overall.
Select the correct class. Options are active, inactive and nothing else.

Here's what some known entries look like.
COMPOUND: COCCN1C(=O)C(=O)/C(=C(/O)c2ccc(S(=O)(=O)N3CCOCC3)cc2)C1c1ccc(OC)c(OC)c1 (stereo unspecified)
STUDY SYSTEM: DNA dC->dU-editing enzyme APOBEC-3G (Homo sapiens) (UniProt Q9HC16)
CLASS NAME: inactive
//
COMPOUND: Cc1cccc(NC(=O)c2ccc(S(=O)(=O)N(C)CC3CCCO3)cc2)c1C (stereo unspecified)
STUDY SYSTEM: DNA dC->dU-editing enzyme APOBEC-3G (Homo sapiens) (UniProt Q9HC16)
CLASS NAME: inactive
//
COMPOUND: O=C1CC(N2CCN(c3ccc(F)cc3)CC2)C(=O)N1c1ccccc1 (stereo unspecified)
STUDY SYSTEM: DNA dC->dU-editing enzyme APOBEC-3G (Homo sapiens) (UniProt Q9HC16)
CLASS NAME: inactive
//
COMPOUND: Fc1ccc(Nc2nnns2)cc1
STUDY SYSTEM: DNA dC->dU-editing enzyme APOBEC-3G (Homo sapiens) (UniProt Q9HC16)
CLASS NAME: active
//
COMPOUND: COc1cc(C(=S)N2CCOCC2)ccc1O
STUDY SYSTEM: DNA dC->dU-editing enzyme APOBEC-3G (Homo sapiens) (UniProt Q9HC16)
CLASS NAME: inactive

Exam item: GET /call?item= COc1ccc(N2CC(C(=O)NCCS(=O)(=O)N3CCN(c4ccccc4)CC3)CC2=O)cc1 (stereo unspecified) returns the recorded outcome of this test.
Marked response: inactive

Exam item: How did this test come out for "S=c1[nH]nc2c3c4c(sc3ncn12)CCCC4" ?
Marked response: active

Exam item: Returns: the outcome recorded for CC1(C)CC(=O)C2=C(C1)N=C1SCCC(=O)N1C2c1ccc(C(F)(F)F)cc1 (stereo unspecified) in this assay.
Marked response: inactive

----------
molecular target: DNA dC->dU-editing enzyme APOBEC-3G (Homo sapiens); assay: APOBEC3G DNA deaminase inhibitors, primary screen, biochemical, fluorescence, single-stranded DNA substrate, uHTS (AID 493012); details: recombinant A3G, ssDNA deamination FAM/TAMRA fluorescence; at 20 µM;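 note: plate controls were DMSO wells with A3G for no effect and wells lacking A3G enzyme for full effect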
The whole screen tested about 330,000 compounds, of which about 930 (0.28%) were called active.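 Rule for the calls: active = inhibition of at least 40% at 20 µM, with no more than 30% in the related APOBEC3A deaminase screen; inactive = the rest.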 This excerpt belongs to a sample that is enriched for actives.
Select the correct class. Options are active, inactive and nothing else.

Example entries begin here.
COMPOUND: O=c1c2ccccc2nnn1CSc1nc2sc3c(c2c(=O)n1CC1CCCO1)CCC3 (stereo unspecified)
CLASS NAME: inactive
--
COMPOUND: CC(=O)c1c(C)[nH]c(=S)c(C#N)c1-c1ccc(F)cc1
CLASS NAME: inactive
--
COMPOUND: COc1ccc(NC(=O)c2oc3ccc(S(=O)(=O)N4CCOCC4)cc3c2C)cc1
CLASS NAME: inactive
--
COMPOUND: CCOc1ccc(C(=O)Nc2ccc(S(=O)(=O)Nc3cc(C)on3)cc2)cc1
CLASS NAME: inactive
--
COMPOUND: O=C(CN1CCN(C2CCS(=O)(=O)C2)CC1)N1N=C(c2ccc(Cl)cc2)CC1c1ccco1 (stereo unspecified)
CLASS NAME: inactive
--
COMPOUND: Cc1ccc(S(=O)(=O)N2CCN(S(=O)(=O)N3CCOCC3)CC2)cc1
CLASS NAME: inactive
--
COMPOUND: CCC(=O)Nc1ccc(C(=O)Nc2cc(C)on2)cc1
CLASS NAME: inactive
--
COMPOUND: COc1ccc(C2CC(c3ccccc3)=NN2C(=O)COC(=O)COc2ccccc2)cc1 (stereo unspecified)
CLASS NAME: inactive

Exam item: For CC(CN1CCCCC1)OC(=O)c1ccccc1Cl (stereo unspecified) , what call appears in the results of this test?
Marked response: inactive

Exam item: Recorded test outcome, item "CCc1c(C)[nH]c(=S)c(C#N)c1C"
Marked response: active

Exam item: For this compound, state the assay outcome: "CCOc1ccc(NC(=O)Nc2cc(C)on2)cc1"
Marked response: active

----------
For each of the compounds below, state its inhibition.
target: DNA dC->dU-editing enzyme APOBEC-3G (Homo sapiens); test: APOBEC3G DNA deaminase inhibitors, primary screen, biochemical, fluorescence, single-stranded DNA substrate, uHTS (AID 493012); details: recombinant A3G, ssDNA deamination FAM/TAMRA fluorescence; at 20 µM; hits give high values;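 note: plate controls were DMSO wells with A3G for no effect and wells lacking A3G enzyme for full effect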
Among all 330,000 compounds or so, about 930 (0.28%) were called active. The sample holds actives, similar compounds and a random draw of the others, so the mix is not that of the screen.

COMPOUND: Cc1ccc(NCc2n[nH]c(=S)n2-c2ccccc2)cc1Cl
inhibition: 10.6% (inactive)

Hey, quick one: what's inhibition for each of these?
1. CCOC(=O)NC(=O)C(=CNc1cccc(OC)c1)C(=O)NC(=O)OCC
2. COc1ccc(Cc2n[nH]c(=S)n2NC(=O)Nc2ccc(C)cc2)cc1
3. CCCCn1c(N)c(N(CCOC)C(=O)c2sc3ccccc3c2Cl)c(=O)[nH]c1=O
4. C=C(C)C(=O)Nc1cccc(C2=NOC3(C2)C[C@H](C(N)=O)N(C(=O)C(c2ccccc2)c2ccccc2)C3)c1 (stereo partly drawn)

Marked response:
1. -5.67% (inactive)
2. 26.9% (inactive)
3. -7.98% (inactive)
4. 53.1% (active)

The following compounds each have a reported value; give each one's inhibition.
1. Cc1ccc(OCc2n[nH]c(=S)n2-c2ccccc2)cc1
2. CCc1cccc(NC(=O)C2CCCN(S(=O)(=O)c3ccc4[nH]c(=O)ccc4c3)C2)c1 (stereo not drawn)
3. CCCCCCCCn1c2c(c(=N)c3c1CCC3)CCCC2
4. O=C(COc1cc(Cl)c(Cl)cc1Cl)NC(=O)NC1CCCC1
5. Cc1ccc(C)c(S(=O)(=O)Nc2cc(C)on2)c1
6. Cc1ncn(C23CC4CC(CC(O)(C4)C2)C3)n1
7. Cc1nc([N+](=O)[O-])nn1C12CC3CC(CC(Br)(C3)C1)C2
8. COc1ccc(OCc2n[nH]c(=S)n2N)cc1

Marked response:
["9.43% (inactive)", "-3.15% (inactive)", "-6.25% (inactive)", "-1.68% (inactive)", "-6.75% (inactive)", "-4.67% (inactive)", "59.1% (active)", "59.6% (active)"]

List the reported inhibition of each compound below.
1. CC(Oc1ccc(F)cc1)C(=O)Nc1ccccc1C(=O)NC1CC1 (stereo not drawn)
2. C/C=C\C=C\C(=O)N1CC2(CC(c3cccc(NC(=O)/C(C)=C\C)c3)=NO2)C[C@H]1C(N)=O (stereo partly drawn)
3. Nc1c(NCCc2ccccc2)c2ccccc2oc1=O
4. CCn1cc(C(=O)NCC(=O)NC(C)(C)CO)c(=O)c2cc3c(cc21)OCO3
5. FC(F)(F)C1CCCN(c2nsc3ccccc23)C1 (stereo not drawn)
6. O=c1cnnc(Nc2ccccc2)[nH]1
7. Cc1cc(-c2n[nH]c(=S)n2-c2ccc(C)c(C)c2)no1

Marked response:
1: -11.6% (inactive); 2: -3.46% (inactive); 3: -2.86% (inactive); 4: 5.44% (inactive); 5: 72.5% (active); 6: -1.93% (inactive); 7: 45.2% (active)

Could you tell me inhibition for each of these compounds? They are listed below.
1. S=c1[nH]nc(Nc2ccccc2)s1
2. S=c1[nH]nc(NCCc2ccccc2)s1
3. N#Cc1c(Cl)nc(-c2cccnc2)nc1-c1ccccc1

Marked response:
1: 42.7% (active); 2: 43.1% (active); 3: -2.3% (inactive)
